Origin of values: patent US20220177587A1

Biological target: CD28 (Homo sapiens, UniProt P10747)
Assay: Flow binding to Jurkat/IL2 reporter cells (CD28)
Design: host or cells: Jurkat cells expressing an IL-2-luciferase reporter
Settings: Table E11; Jurkats (CD28); 33.3 nM
MEASURED_PROPERTY: CD28 MFI at 33.3 nM
Lab note: record the figure alone, no unit after it.

Task: Which CD28 MFI at 33.3 nM value belongs to R29C/E35D/M47L/V68M/A71G/L85M (protein, UniProt P33681 35-288, looked up, variant R29C E35D M47L V68M A71G L85M, Fc fusion) T-lymphocyte activation …: VIHVTKEVKEVATLSCGHNVSVEELAQTCIYWQKDKKMVLTMMSGDLNIWPEYKNRTIFDITNNLSIMILGLRPSDEGTYECVVMKYEKDAFKREHLAEVTLSVKADFPTPSISDFEIPTSNIRRIICSTSGGFPEPHLSWLENGEELNAINTTVSQDPETELYAVSSKLDFNMTTNHSFMCLIKYGHLRVNQTFNWNTTKQEHFPDNLLPSWAITLISVNGIFVICCLTYCFAPRCRERRRNERLRRESVRPV ?
Result: 16
